Test system: GTPase KRas (Homo sapiens), P01116 [G12D]
Sequence (P01116 whole entry G12D, looked up): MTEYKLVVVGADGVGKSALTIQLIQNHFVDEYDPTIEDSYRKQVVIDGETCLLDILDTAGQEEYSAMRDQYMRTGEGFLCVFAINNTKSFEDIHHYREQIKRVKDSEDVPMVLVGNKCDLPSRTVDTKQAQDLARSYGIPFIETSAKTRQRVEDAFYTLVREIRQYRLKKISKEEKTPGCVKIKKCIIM
test: Binding affinity to biotinylated KRAS G12D mutant (unknown origin) assessed as Koff incubated for 120 mins by SPR analysis
Positions of bridges follow the written chain, without caps; N, C: chain ends. Non-standard residues stand in square brackets, D forms with d. Residues, ends and D or L forms follow the SMILES beside them. *: point of attachment. hPhe(3-Cl-4-CF3) = N[C@@H](CCc1ccc(C(F)(F)F)c(Cl)c1)C(=O)O; NMeCha = CN[C@@H](CC1CCCCC1)C(=O)O; NEtLeu = CCN[C@@H](CC(C)C)C(=O)O; NMeChg = CN[C@H](C(=O)O)C1CCCCC1; NMeD = CN[C@@H](CC(=O)O)C(=O)O; NMehSer = CN[C@@H](CCO)C(=O)O; NMeNva = CCC[C@H](NC)C(=O)O; Piperidide = C1CCN(*)CC1; Ac5c = NC1(C(=O)O)CCCC1; Sar = CNCC(=O)O
Entries and their K values follow.

compound	K
CCC[C@H]1C(=O)N[C@@H]([C@@H](C)CC)C(=O)N(C)CC(=O)N(C)CC(=O)N(C)[C@@H](CC2CCCCC2)C(=O)N(C)CC(=O)N[C@@H](CCc2ccc(C(F)(F)F)c(Cl)c2)C(=O)N2CCC[C@H]2C(=O)NC2(CCCC2)C(=O)N(C)[C@@H](C2CCCCC2)C(=O)N(C)[C@H](C(=O)N2CCCCC2)CC(=O)N1C ([NMeNva]I[Sar][Sar][NMeCha][Sar][hPhe(3-Cl-4-CF3)]P[Ac5c][NMeChg][NMeD]-Piperidide; lactam N-11)	2.3 10^-4/s
CC[C@H](C)[C@@H]1NC(=O)[C@H](CC2CCCCC2)N(C)C(=O)C[C@@H](C(=O)N2CCCCC2)N(C)C(=O)[C@H](C2CCCCC2)N(C)C(=O)C2(CCCC2)NC(=O)[C@@H]2CCCN2C(=O)[C@H](CCc2ccc(C(F)(F)F)c(Cl)c2)NC(=O)CN(C)C(=O)[C@H](CC2CCCCC2)N(C)C(=O)CN(C)C(=O)CN(C)C1=O ([NMeCha]I[Sar][Sar][NMeCha][Sar][hPhe(3-Cl-4-CF3)]P[Ac5c][NMeChg][NMeD]-Piperidide; lactam N-11)	2.6 10^-4/s
CC[C@H](C)[C@@H]1NC(=O)[C@H](CCO)N(C)C(=O)C[C@@H](C(=O)N2CCCCC2)N(C)C(=O)[C@H](C2CCCCC2)N(C)C(=O)C2(CCCC2)NC(=O)[C@@H]2CCCN2C(=O)[C@H](CCc2ccc(C(F)(F)F)c(Cl)c2)NC(=O)CN(C)C(=O)[C@H](CC2CCCCC2)N(C)C(=O)CN(C)C(=O)CN(C)C1=O ([NMehSer]I[Sar][Sar][NMeCha][Sar][hPhe(3-Cl-4-CF3)]P[Ac5c][NMeChg][NMeD]-Piperidide; lactam N-11)	2.2 10^-4/s
CC[C@H](C)[C@@H]1NC(=O)[C@H](CC(C)C)N(CC)C(=O)C[C@@H](C(=O)N2CCCCC2)N(C)C(=O)[C@H](C2CCCCC2)N(C)C(=O)C2(CCCC2)NC(=O)[C@@H]2CCCN2C(=O)[C@H](CCc2ccc(C(F)(F)F)c(Cl)c2)NC(=O)CN(C)C(=O)[C@H](CC2CCCCC2)N(C)C(=O)CN(C)C(=O)CN(C)C1=O ([NEtLeu]I[Sar][Sar][NMeCha][Sar][hPhe(3-Cl-4-CF3)]P[Ac5c][NMeChg][NMeD]-Piperidide; lactam N-11)	2.3 10^-4/s
CC[C@H](C)[C@@H]1NC(=O)[C@H](CCOC)N(C)C(=O)C[C@@H](C(=O)N2CCCCC2)N(C)C(=O)[C@H](C2CCCCC2)N(C)C(=O)C2(CCCC2)NC(=O)[C@@H]2CCCN2C(=O)[C@H](CCc2ccc(C(F)(F)F)c(Cl)c2)NC(=O)CN(C)C(=O)[C@H](CC2CCCCC2)N(C)C(=O)CN(C)C(=O)CN(C)C1=O ([NMehSer](Me)I[Sar][Sar][NMeCha][Sar][hPhe(3-Cl-4-CF3)]P[Ac5c][NMeChg][NMeD]-Piperidide; lactam N-11)	2.8 10^-4/s

These entries and their values trace back to ChEMBL document CHEMBL5550184.
